The measured values listed here are drawn from patent US5631382A.

- TEST: Developed color of polymer plate under xenon light (color density, maximum absorption wavelength)
- Assay type: physicochemical
- DETAILS: state of developing color, polymer plate
PARAMETER: λ max (nm)

N#CN1C(=O)C2=C(C3CC3)c3ccoc3C3(C4CC5CC(C4)CC3C5)C2C1=O (stereo not drawn) : 600
CC1=C2C(=O)N(C#N)C(=O)C2C2(c3sccc31)C1CC3CC(C1)CC2C3 (stereo not drawn) : 604
COc1ccc(C2=C3C(=O)N(C(=O)c4ccccc4)C(=O)C3C3(c4oc5ccccc5c42)C2CC4CC3CC(C)(C4)C2)cc1 (stereo not drawn) : 541
COc1ccc(-c2cc3c(n2C)C2(C4CC5CC(C4)CC2C5)C2C(=O)N(CC#N)C(=O)C2=C3C)cc1 (stereo not drawn) [I, reference compound] : 630
CC(=O)N1C(=O)C2=C(C)c3ccsc3C3(C4CC5CC(C4)CC3C5)C2C1=O (stereo not drawn) : 550
CC(=O)N1C(=O)C2=C(C3CC3)c3ccsc3C3(C4CC5CC(C4)CC3C5)C2C1=O (stereo not drawn) : 560
CCN1C(=O)C2=C(C)c3cc(-c4ccc(OC)cc4)n(C)c3C3(C4CC5CC(C4)CC3C5)C2C1=O (stereo not drawn) [G, reference compound] : 610
CC1=C2C(=O)N(C(=O)c3ccccc3)C(=O)C2C2(c3occc31)C1CC3CC(C1)CC2C3 (stereo not drawn) : 550
CC1=C2C(=O)N(CC#N)C(=O)C2C2(c3oc(-c4ccccc4)cc31)C1CC3CC(C1)CC2C3 (stereo not drawn) [B, reference compound] : 550
CCC1=C2C(=O)N(C(=O)C(Cl)(Cl)Cl)C(=O)C2C2(c3sc4cc(OC)ccc4c31)C1CC3CC(Cl)(C1)CC2(Cl)C3 (stereo not drawn) : 550
CC1=C2C(=O)N(C#N)C(=O)C2C2(c3occc31)C1CC3CC(C1)CC2C3 (stereo not drawn) : 580
CCCC1=C2C(=O)N(C(Cl)(Cl)Cl)C(=O)C2C2(c3oc4c(c31)CCCC4)C1CCC2CC1 (stereo not drawn) : 576
N#CN1C(=O)C2=C(c3ccoc3)c3ccoc3C3(C4CCC3CC4)C2C1=O (stereo not drawn) : 613
CCN1C(=O)C2=C(C)c3ccsc3C3(C4CC5CC(C4)CC3C5)C2C1=O (stereo not drawn) [A, reference compound] : 540
CC(=O)N1C(=O)C2=C(C3CC3)c3c(sc4c3CCCC4)C3(C4CCC3CC4)C2C1=O (stereo not drawn) : 600

---

- TEST: Developed color of polymer plate under xenon light (color density, maximum absorption wavelength)
- Format: physicochemical
- DETAILS: 0.04 parts in polymer plate
- From the text: 0.04 Parts of fulgimide compounds shown in Table 3, 70 parts of tetraethyleneglycol dimethacrylate, 15 parts of triethyleneglycol dimethacrylate, 10 parts of glycidyl methacrylate, 5 parts of 2-hydroethylmethacrylate and 1 part of perbutyl ND as a polymerization catalyst, were sufficiently mixed together until they were completely dissolved. […]
PARAMETER: Color density

CCCC1=C2C(=O)N(C(Cl)(Cl)Cl)C(=O)C2C2(c3oc4c(c31)CCCC4)C1CCC2CC1 (stereo not shown) : 0.94
CC1=C2C(=O)N(S(=O)(=O)c3cc(Cl)cc(Cl)c3)C(=O)C2C2(c3c1c1c(n3-c3ccccc3)CCCC1)C1CCC2CC1 (stereo not shown) : 0.71
CC1=C2C(=O)N(CC#N)C(=O)C2C2(c3oc(-c4ccccc4)cc31)C1CC3CC(C1)CC2C3 (stereo not shown) [B, reference compound] : 0.75
COc1cc(OC)c2c(c1)C(C)=C1C(=O)N(C#N)C(=O)C1C21C2CC3CC(C2)CC1C3 (stereo not shown) : 0.73

---

- TEST: Wear life (T 1/2) of polymer plate in xenon fade meter, JIS L0843 and JIS B7754
- Assay type: physicochemical
- DETAILS: time until color density decreases to one-half the initial value
PARAMETER: T1/2 (h)

CCCCC12CCC(CC1)C21c2sc(C)c(CC)c2C(C2CC2)=C2C(=O)N(C(=O)c3cccc(C(F)(F)F)c3)C(=O)C21 (stereo not shown) [Compound 17] : 140
CC(=O)N1C(=O)C2=C(C)c3c4c(n(-c5ccccc5)c3C3(C5CCCC3CCC5)C2C1=O)CCCC4 (stereo not shown) [Compound 16] : 100
CCN1C(=O)C2=C(C)c3cc(-c4ccc(OC)cc4)n(-c4ccccc4)c3C3(C4CC5CC(C4)CC3C5)C2C1=O (stereo not shown) [F, reference compound] : 80
CCC1=C2C(=O)N(S(=O)(=O)O)C(=O)C2C2(c3c(OC)cc(OC)cc31)C1CC3CC(C1)CC2C3 (stereo not shown) [Compound 27] : 100

a: CCOC(=O)CN1C(=O)C2=C(C)c3cc(-c4ccc(OC)cc4)n(C)c3C3(C4CC5CC(C4)CC3C5)C2C1=O (stereo not shown) [H, reference compound]
b: CC1=C2C(=O)N(C#N)C(=O)C2C2(c3oc(-c4ccccc4)cc31)C1CC3CC(C1)CC2C3 (stereo not shown) [Compound 5]
c: CC(=O)N1C(=O)C2=C(C3CC3)c3ccsc3C3(C4CC5CC(C4)CC3C5)C2C1=O (stereo not shown) [Compound 2]
Input: // sort entries: T1/2, high to low Output the labels ranked as instructed.
Output: b, c, a

---

- TEST: Wear life (T 1/2) of polymer plate in xenon fade meter, JIS L0843 and JIS B7754
- Assay type: physicochemical
- DETAILS: time until color density decreases to one-half the initial value
- From the text: 0.04 Parts of fulgimide compounds shown in Table 3, 70 parts of tetraethyleneglycol dimethacrylate, 15 parts of triethyleneglycol dimethacrylate, 10 parts of glycidyl methacrylate, 5 parts of 2-hydroethylmethacrylate and 1 part of perbutyl ND as a polymerization catalyst, were sufficiently mixed together until they were completely dissolved. […]
PARAMETER: T1/2 (h)

CCOC12CCC(CC1)C21c2sc3ccccc3c2C(CC)=C2C(=O)N(S(=O)(=O)CC)C(=O)C21 (stereo not shown) : 100
CC1=C2C(=O)N(C(=O)c3cccc(C#N)c3)C(=O)C2C2(c3c1c1c(n3C)CCCC1)C1CC3CC(F)(C1)CC2(F)C3 (stereo not shown) : 100
COc1ccc(-c2cc3c(s2)C2(C4CC5CC(C4)CC2C5)C2C(=O)N(CC#N)C(=O)C2=C3C)cc1 (stereo not shown) [E, reference compound] : 90
CC1=C2C(=O)N(S(=O)(=O)c3cc(Cl)cc(Cl)c3)C(=O)C2C2(c3c1c1c(n3-c3ccccc3)CCCC1)C1CCC2CC1 (stereo not shown) : 100

---

- TEST: Initial color of polymer plate (visual observation, YI by color-difference meter)
- Assay type: physicochemical
- DETAILS: color-difference meter SM-4
PARAMETER: Initial color, YI

O=C1C2=C(c3ccccc3)c3c(oc4ccccc34)C3(C4CCC3CC4)C2C(=O)N1C(Cl)(Cl)Cl (stereo not shown) [Compound 21] : 2.95
O=C1C2=C(C3CC3)c3ccsc3C3(C4CC5CC(C4)CC3C5)C2C(=O)N1C(=O)c1ccccc1 (stereo not shown) [Compound 3] : 3.84

P: CC1=C2C(=O)N(C(=O)c3cccc(C#N)c3)C(=O)C2C2(c3c1c1c(n3C)CCCC1)C1CC3CC(F)(C1)CC2(F)C3 (stereo not shown) [Compound 11]
Q: COc1c(C)sc2c1C1(C3CC4CC(C3)CC1C4)C1C(=O)N(C(=O)Oc3ccccc3)C(=O)C1=C2C (stereo not shown) [Compound 26]
Input: Smaller Initial color, YI value, P vs Q ? Please indicate the selected item by its label.
Output: P
(P: 2.35, Q: 3.84)

---

- TEST: Initial color of polymer plate (visual observation, YI by color-difference meter)
- Format: physicochemical
- DETAILS: before irradiation
PARAMETER: Initial color, visually observed

Illustrative cases are given below, each with its answer.
CC1=C2C(=O)N(S(=O)(=O)c3cc(Cl)cc(Cl)c3)C(=O)C2C2(c3c1c1c(n3-c3ccccc3)CCCC1)C1CCC2CC1 (centres unmarked) : colorless
CC(=O)N1C(=O)C2=C(C)c3c4c(n(-c5ccccc5)c3C3(C5CCCC3CCC5)C2C1=O)CCCC4 (centres unmarked) : colorless
CCCC1=C2C(=O)N(C(Cl)(Cl)Cl)C(=O)C2C2(c3oc4c(c31)CCCC4)C1CCC2CC1 (centres unmarked) : colorless
N#CN1C(=O)C2=C(c3ccoc3)c3ccoc3C3(C4CCC3CC4)C2C1=O (centres unmarked) : colorless
CCOC(=O)N1C(=O)C2=C(C)c3c(sc4ccccc34)C3(C4CCCC3(OC)CCC4)C2C1=O (centres unmarked) : colorless

Next compound, Initial color, visually observed to be filled in.
Input: Any idea what its Initial color, visually observed is? The compound is CC(=O)N1C(=O)C2=C(C3CC3)c3ccsc3C3(C4CC5CC(C4)CC3C5)C2C1=O (centres unmarked)
Output: colorless

---

- TEST: Developed color of polymer plate under xenon light (color density, maximum absorption wavelength)
- Format: physicochemical
- DETAILS: 0.04 parts in polymer plate
PARAMETER: Color density

# count of solved cases: 2
CCN1C(=O)C2=C(C)c3cc(-c4ccc(OC)cc4)n(-c4ccccc4)c3C3(C4CC5CC(C4)CC3C5)C2C1=O (centres unmarked) [F, reference compound] : 0.75
COc1ccc(-c2cc3c(o2)C2(C4CC5CC(C4)CC2C5)C2C(=O)N(CC#N)C(=O)C2=C3C)cc1 (centres unmarked) [C, reference compound] : 0.77

a: COC12CC3CC(C1)C1(c4c(c5ccccc5n4-c4ccccc4)C(C4CC4)=C4C(=O)N(C(Cl)(Cl)Cl)C(=O)C41)C(C3)C2 (centres unmarked)
b: CC1=C2C(=O)N(C#N)C(=O)C2C2(c3occc31)C1CC3CC(C1)CC2C3 (centres unmarked)
Input: Input pair: a , b . Output: entry with lower Color density. Answer by quoting the chosen item's label.
Output: b
